Tested on: TK-10 renal
Test: NCI tumour cell line growth inhibition, 48 h
MEASUREMENT LABEL: TGI

O=C1C=CC2(C=C1)C[C@H](NC(=O)OCc1ccccc1)C(=O)O2: 32.4 µM
C1CN2CCNCCN(CCN1)CC2: > 100 µM
CC[C@H](C)[C@H](NC(=O)[C@@]1(O)[C@H](O)[C@]2(CC)C=CCN3CC[C@@]4(c5cc(Br)c(OC)cc5N(C)[C@@H]14)[C@@H]32)C(=O)OC: > 100 µM
C=CC1(C)OC2(CCN(C(=O)OCC)CC2)OC1C (centres undefined): > 100 µM
Cn1c(=O)c(Cl)c(N=[N+]=[N-])c2ccccc21: > 100 µM

**Q:** Report value only: TGI, TK-10 renal, `CCO/C(Cc1ccc(Cl)cc1)=N/NC(N)=S`
**A:** > 100 µM

**Q:** Report value only: TGI, TK-10 renal, `O=[N+]([O-])c1cc2c([N+](=O)[O-])cccc2o1`
**A:** 23.8 µM

**Q:** Report value only: TGI, TK-10 renal, `CCCCC(=O)Nc1ccc2c(C)cc(-c3ccc(-c4cc(-c5ccc(C)cc5)cc(-c5ccc(-c6cc(C)c7ccc(NC(=O)CCCC)nc7n6)cc5)n4)cc3)nc2n1`
**A:** > 100 µM
